- REPORTED_CONDITIONS: in DMF, 274.15 K
VALUE_TYPE: solubility (mole fraction)
One number for each entry.

[in] Bench note: what solubility (mole fraction) did CC(C)(OOC(C)(C)c1ccccc1)c1ccccc1 show?
[out] 0.152

---

- REPORTED_CONDITIONS: in n-butanol, 294.15 K
VALUE_TYPE: solubility (mole fraction)
Answers are plain numbers.

[in] What measured solubility (mole fraction) goes with CC(C)(OOC(C)(C)c1ccccc1)c1ccccc1 ?
[out] 0.0974

---

- REPORTED_CONDITIONS: in methanol, 294.15 K
VALUE_TYPE: solubility (mole fraction)

[in] Need solubility (mole fraction), item CC(C)(OOC(C)(C)c1ccccc1)c1ccccc1
[out] 0.0283

Every entry's value here was drawn from BigSolDB 2.1.
